# credit: PubChem BioAssay AID651664

test.details: inhibitors of lytic granule exocytosis, flow cytometry, TALL-104 cells, validation set (AID 651664)
test.settings: TALL-104 LAMP-1 externalization, at 15.2 µM, hits give high values, stimulated with thapsigargin and PMA
Screen size: about 1,800 compounds; fewer than 10 were called active. Only a sample is shown.
Listed here are molecules together with their documented inhibition.
measured.property: inhibition (%)

1. CCS(=O)(=O)N1CCCC(C(=O)NC2CCCCC2C)C1 (configuration not stated)    0.3
2. COc1ccccc1N(C(=O)c1ccco1)C(C(=O)NC1CCCC1)c1cccnc1 (configuration not stated)    -0.8
3. CCCn1c2c(c(O)c(C(=O)Nc3ccccc3)c1=O)CCCC2    1.8
4. [O-]C1=N/[N+](=C/c2ccccc2Cl)CC1    -2.2
5. C/C(=N/OC(=O)c1ccc(F)cc1)c1ccc(C)cc1    0.7
6. CCC(C#CCN1CCCCC1)(CC)OCCC#N    25.8
7. CCOC(=O)C1CCN(C(=O)CN(c2cc(OC)ccc2OC)S(=O)(=O)c2ccccc2)CC1    -2.6
8. COCCCn1c(-c2ccccc2Cl)n[nH]c1=S    4.6
9. COc1cc(OC)cc(C(=O)Nc2nc3ccccc3[nH]2)c1    -1
10. COc1ccc(C(C)=O)cc1CN1C(=O)NC2(CCCCC2)C1=O    -0.4
11. Cn1c(-c2ccccc2Br)n[nH]c1=S    89.2
12. S=c1[nH]nc(-c2ccccc2Cl)n1CC1CCCO1 (configuration not stated)    -1.9

###

test.details: inhibitors of lytic granule exocytosis, flow cytometry, TALL-104 cells, validation set (AID 651664)
test.settings: TALL-104 LAMP-1 externalization, at 15.2 µM, hits give high values, stimulated with thapsigargin and PMA
Among all 1,800 compounds or so, fewer than 10 were called active. The list is a sample of the results.
measured.property: inhibition (%)

1) CC(C)(C)NC(=O)C(=O)N/N=C/c1ccc(Br)cc1    -2.4
2) Cc1ccc(C(=O)Cn2cnc3ccccc3c2=O)cc1C    6.9
3) O=C(NCC1CCCO1)/C(=C\c1ccco1)NC(=O)c1ccccc1 (centres undefined)    -2.2
4) O=C1c2ccccc2-c2c1nc1c([n+]2[O-])CCCC1    -5.1
5) CC1=NC(=O)C(N=Nc2ccccc2)N1c1ccccc1 (centres undefined)    -2.8
6) COC(=O)CN1C(=O)C(O)(CC(=O)c2ccc(C)o2)c2ccccc21 (centres undefined)    -1.9
7) Cc1occc1C(=O)NC(C)CCc1ccccc1 (centres undefined)    6.4
8) OCCSc1ncnc2c1oc1ccccc12    -1.3
9) COc1ccc(-c2cn[nH]c2N)cc1OC    2.5
10) O=c1[nH]n(-c2ncnc3c2cnn3-c2ccccc2)c(=O)c2ccccc12    -0.6
11) COCCNc1nc2ccccc2nc1NS(=O)(=O)c1ccc(C)cc1C    2.3
12) O=C(COc1ccccc1O)N1CCN(C(=O)c2ccco2)CC1    0.9
13) O=c1[nH]c(CO)nc2c1oc1ccccc12    -3.5
14) Cc1ccc(-n2nc(C)c3cc(C(=O)O)sc32)cc1    5.6
15) Cc1ccc2c(c1Br)/C(=N/N1C(=O)c3ccccc3C1=O)C(=O)N2    -3.6
16) CC1(C)Cc2c(C#N)c(SCc3ccccc3)nc(N3CCOCC3)c2CO1    1.1
17) COC(=O)C1=CN(CCCN2CCCC2=O)C=C(C(=O)OC)C1c1ccccc1C(F)(F)F    3.5
18) CC(=O)c1ccc(NC(=O)Nc2ccc(NS(=O)(=O)c3ccc(C)cc3)cc2)cc1    -2.9
19) O=C(CSc1ncnc2c1cnn2Cc1ccccc1)Nc1ccc2c(c1)OCCO2    0.3
20) CCC(C)NC(=O)Cn1cccc1C(=O)c1ccccc1 (centres undefined)    -0.2
21) Cc1noc(NS(=O)(=O)c2ccc(NC(=O)Nc3ccc(Cl)c(Cl)c3)cc2)c1C    0
22) Cc1ccc(S(=O)(=O)N2CCN(C(=O)c3cc4c(C)nn(-c5ccccc5C)c4s3)CC2)cc1    -1.8
23) Cc1cnc(NC(=O)c2ccc3c(c2)C(=O)N(Cc2ccco2)C3=O)s1    -1.3
24) CCOC(=O)c1[nH]c(C)c(/C(O)=C2\C(=O)C(=O)N(CCN(C)C)C2c2ccncc2)c1C (centres undefined)    4
